- Target of assay: Voltage-gated L-type calcium channel (Rattus norvegicus, UniProt P22002+Q02485+P27732)
- Method: Inhibition of L-type calcium channel in neonatal rat cortical neurons assessed as inhibition of veratridine-induced intracellular calcium level incubated for 30 min followed by veratridine induction for 2 min by fluorimetric analysis
- Type: cell-based
Listing: IC50 of selected molecules
Write the answer as a number in µM, unit excluded.

Mol | Val
COC(=O)C1=C(C)NC(C)=C(C(=O)OC)C1c1ccc(OCC(=O)N2CCN(C)CC2)c(OC)c1 | 9.1
COC(=O)C1=C(C)NC(C)=C(C(=O)OC)C1c1ccc(OCC(=O)n2ccnc2)c(OC)c1 | 10.1

Please turn your attention to the following entry.
**Q:** Any idea what its IC50 is? The molecule is `COC(=O)C1=C(C)NC(C)=C(C(=O)OC)C1c1cccc(OCC(=O)N2CCN(C)CC2)c1`
**A:** 10

Hello, the source for this data is ChEMBL document CHEMBL3045355, in case you need it.
